Recorded values, source the supplement of paper PMC9170038.

- Test system: K4 kissing-loop RNA reporter
- protocol-details: apparent KD of K4 kissing-loop reporter; higher = weaker reporter binding
- condition-label: Eterna round: R107; input ligand: tryptophan 2.4 mM
Kindly note that classification relies on apparent KD of K4 kissing-loop reporter with these boundaries: L = under 100 nM, M = from 100 nM up to 400 nM, H = 400 nM and over

input-sequence: CAUACCCAGUGAUGUUGGGUCGGUACCGAUACCAGUCGUACAGCCGACCCUUGGCAGCGGUAGCAUUGCCCGGCGUCGGCUUGUG [theeternabot_exclusion_KL_Theo_A_17]
experimental-system: K4 kissing-loop RNA reporter
label-value: M
--
input-sequence: UGACAUUGCUCAGAUACCAGACCUGAGGAUCACCCGGGUGCCAAAACGUACUAAAUAAAGGUCCCUUGGCAGCUGAGCAAUGUCU [TheoBX 13]
experimental-system: K4 kissing-loop RNA reporter
label-value: L
--
input-sequence: GAUUUAGAGGCGGCCGCCACUAGUGAUGUUAGUGAUGUUUGAUACUGAAUAUAUCUGCGAGUAGAUAGGACCGGGCCAGAUGGAG [plmfmullin]
experimental-system: K4 kissing-loop RNA reporter
label-value: M
--
input-sequence: AAUUAAUACAGAAGGAGCGUGUUUUUUAAUUUAUUUUCAUGAUCGAGUGAUGUUCGAUAUACACAGGUAGGUCGCUGUAUAUUUA [JR_SSArginiB_Sub008]
experimental-system: K4 kissing-loop RNA reporter
label-value: L
--
input-sequence: UAAUUUAUGUCUUUAAUAUAAUUUUCAGAUACCAGUGAUUAUUAACACCCUUGGCAGCUGUGUAGAGUGAUGUUCUCAUGCUUAA [#07 K4 Theophylline A Exclusion]
experimental-system: K4 kissing-loop RNA reporter
label-value: M
--
input-sequence: AUCUAUGAGCGAGGAUAUGCAUAACGCGAGUGAUGUUCGCGAUGUGGGCGUAAUUGAUAAAAUGAAGCAGAAGGCGCACUCAUGA [Exclusion - FMW B / B]
experimental-system: K4 kissing-loop RNA reporter
label-value: M
--
input-sequence: UAAAAUAAAUAAUAGAGAGCGUUACUCGAAGGAGCGACGAAUUCGUCAGGUAGGUCGCGAGUGAUGUUCGCAAAUACGCUCUCAU [AK2 Exc Arginine A]
experimental-system: K4 kissing-loop RNA reporter
label-value: H
--
input-sequence: CAUACGCAUGGAGGAUAUGAGAUUACUCAUAUCAUUUAAUAUUCUCAGUGAUGUUGAGAUUUAGACUCAGAAGGCCAUGUGUAUG [Ex FMN B 13]
experimental-system: K4 kissing-loop RNA reporter
label-value: M
--
input-sequence: AGCCGUCUAAGUGAUGUUUAGGCAUGUCAGCGAGGACCGGUACGGCCGCCACUCGUGCUAUUGAGAUUUCGGGUAGCCCACGUAG [theeternabot_sameState_KL_Trp_A_20]
experimental-system: K4 kissing-loop RNA reporter
label-value: M
--
input-sequence: UUAUAUUUUAUAUUUAGUAGAGCUCUAGCUCGAGGACCGGUACGGCCGCCACUCGAGUGAUGUUCGAGUGGAAGAGCUCUACAUU [AK3.1 EXC Tryptophan A]
experimental-system: K4 kissing-loop RNA reporter
label-value: H
--
input-sequence: AAACAUCACUGGGAGUGAUGUUCUCAGUGACGAGGACCGGUACGGCCGCCACUCGCGAGAGAUUUAGUCUAGUAUUGACUGCAUU [Excl Tryptophan A V11]
experimental-system: K4 kissing-loop RNA reporter;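 further: bound reporter read as fluorescence of individual clusters on recovered sequencing chips by microscopy, with normalized cluster intensities fitted with a binding model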
label-value: M
